Value source: PubChem BioAssay (NCI)

Reported growth values are given for each entry in this list.
system: SNB-19 CNS; assay: NCI-60 one-dose screen, 48 h (100 = growth as untreated, 0 = no growth, -100 = all killed); details: 10 µM unless noted
About 83,000 compounds went through this panel and 20% of them were active in at least one assay; those are over-represented in the sample as a whole.

# compound, system-name, growth [%]
measured = [
    ("Cc1cc2nc3c(=O)[nH]c(=O)nc-3n(CC=O)c2cc1C", "SNB-19 CNS", 99.8),
    ("O=c1[nH]c2ccccc2n2cc3cccnc3c12", "SNB-19 CNS", 71),
    ("CNC(=O)c1ccccc1Sc1ccc2c(/C=C/c3ccccn3)n[nH]c2c1", "SNB-19 CNS", 50.2),
    ("COc1ccc(-c2cn(-c3cccc(C(=O)/C=C/c4ccc(O)c(OC)c4)c3)c(=O)[nH]2)cc1", "SNB-19 CNS", 67.4),
    ("O=S(=O)(NCC[C@@H]1C[C@H]1c1ccc2ccccc2c1)c1ccc(C(F)(F)F)cc1", "SNB-19 CNS", 97.3),
    ("C/C(=C\\C(=N\\N=C(N)N)c1ccc(Cl)cc1)c1ccc(Cl)cc1", "SNB-19 CNS", -79.8),
    ("CO[C@@]12[C@@H]3NC3CN1C1=C(C(=O)C(N)=C(C)C1=O)[C@@H]2COC(N)=O (stereo partly drawn)", "SNB-19 CNS", 18.3),
    ("CC(=O)O[C@H]1[C@H](CC#CC#CC[C@@H]2C[C@]3(C)[C@H]4CC=C5[C@H]6[C@@H](C)[C@H](C)CC[C@]6(C(=O)NCCCCCCCCN)CC[C@@]5(C)[C@]4(C)CC[C@H]3C(C)(C)[C@H]2OC(C)=O)C[C@]2(C)[C@H]3CC=C4[C@H]5[C@@H](C)[C@H](C)CC[C@]5(C(=O)NCCCCCCCCN)CC[C@@]4(C)[C@]3(C)CC[C@H]2C1(C)C", "SNB-19 CNS", 107),
    ("CC(=O)OC1Oc2ccccc2-c2oc3nc(=N)n(C)c-3cc21 (stereo not drawn)", "SNB-19 CNS", 106),
    ("Cc1ccccc1N1C(c2ccccc2)=NNC12C=CC(=O)c1c(O)cccc12 (stereo not drawn)", "SNB-19 CNS", 60.8),
    ("CCOC(=O)C1=C(C)NC(SCc2nnc(-c3ccc(Cl)cc3)o2)=NC1c1ccc(Cl)cc1 (stereo not drawn)", "SNB-19 CNS", 73),
    ("Cc1ccc(S(=O)(=O)NC(CCC(=O)Nc2ccc(Cl)cc2)C(=O)Nc2ccc(Cl)cc2)cc1 (stereo not drawn)", "SNB-19 CNS", 14.1),
    ("COc1ccc(C(=O)C(CN(C)C)c2ccccc2)cc1 (stereo not drawn)", "SNB-19 CNS", 91.2),
]

* * *

tested on: PC-3 prostate; experiment: NCI-60 one-dose screen, 48 h (100 = growth as untreated, 0 = no growth, -100 = all killed); conditions: 10 µM unless noted
Compounds without any hit were thinned out: in the full panel of roughly 83,000, 20% have a hit.
The following compounds are listed with their measured growth values.

# compound, unit, growth
records = [
    ("CC[C@H](Nc1nc(N)nc(C2CC2)c1C#N)c1nc2cccc(NCc3ccc(C(=O)NO)cc3)c2c(=O)n1-c1ccccc1", "%", 10.1),
    ("ClCc1cccc(CSc2ncnc3c2ncn3Cc2cccc(CCl)c2)c1", "%", 49.8),
    ("CC(C)N1CCN(c2ccncc2S(=O)(=O)N2CCN(C)CC2)CC1", "%", 114),
    ("NS(=O)(=O)c1ccc(N2N=C(c3ccc(Br)cc3)CC2c2cn(-c3ccccc3)nc2-c2ccc(Cl)cc2)cc1 (stereo not given)", "%", 73.3),
    ("CC(C)N=C1CCCC1C(=S)SSC(=S)C1CCCC1=NC(C)C (stereo not given)", "%", 47.4),
]

* * *

System: ACHN renal
Assay: NCI-60 one-dose screen, 48 h
Conditions: 10 µM unless noted
Method: Growth inhibition of the ACHN human tumor cell line is measured as a screen for anti-cancer activity. Cells are grown in 96 well plates and exposed to the test compound for 48 hours. Compounds are tested at a single concentration, which is 10^-5 M for most compounds. The reported endpoint is percent growth (GI% or GIPRCNT), where numbers from 0 - 100% represent growth inhibition, and numbers from -100% - 0 represent cell death. For example, a value of 40 represents 60% growth inhibition. […]
The panel holds about 83,000 compounds, 20% with a hit somewhere; the sample as a whole holds those more often. The source made the active and inactive calls. The calls were made as follows: active = growth percent below 10; inactive = the rest.
Classes used: t = active, f = inactive

# compound, label
measured = [
    ("NC(N)=N/N=C\\c1cccc(OCc2ccccc2)c1", "f"),
    ("COc1ccc(/C(=C\\c2cc(OC)c(OC)c(OC)c2)C(=O)N2CCCNCC2)cc1", "f"),
    ("COc1ccc(-c2nsc3c2NC(=O)CC3c2cccc(F)c2)cc1 (stereo unspecified)", "f"),
    ("NC(=S)N/N=C(/c1cccs1)C1CC1", "f"),
    ("CC(C)=CCC[C@H](C)c1ccc(C)c2c1OCN(CCO)C2", "f"),
    ("CCOCC(O)(c1ccc(Cl)cc1)c1ccc(Cl)cc1", "f"),
    ("O=C(/C=C/c1ccccc1)C(Br)C(Br)c1ccccc1 (stereo unspecified)", "t"),
    ("CCCCCCCCCCCCCCC(C(=O)OCC)C(=O)OCC", "f"),
    ("CCCCCc1c(C)[nH]c(/C=C2\\N=C(c3ccc[nH]3)C=C2CC)c1C", "t"),
    ("COc1cc(-c2n/c(=C\\c3c(O)[nH]c4cc(Cl)ccc34)cc3c2=Nc2ccccc2-3)cc(OC)c1OC", "f"),
    ("CC(=O)OC1Oc2cc(C)c(C)cc2-c2oc(=O)c(-c3cc4ccccc4oc3=O)cc21 (stereo unspecified)", "f"),
]

* * *

tested on: SN12C renal; assay: NCI-60 one-dose screen, 48 h; settings: 10 µM unless noted
This is part of a sample that, as a whole, favours compounds with a hit. Of some 83,000 tested, about 20% had one in any assay. Activity calls are given as the source filed them. How the source made its calls: active means growth percent below 10; inactive means the rest.
Outcome codes: active, inactive

# compound, label
records = [
    ("COc1ccc(C2CC(c3ccc(Nc4ccnc5cc(Cl)ccc45)cc3)=NN2c2ccccc2)cc1 (stereo not given)", "inactive"),
    ("CC(COC(=O)c1ccccc1)N1CC2CCC(C1)O2 (stereo not given)", "inactive"),
    ("O=C(Nc1ccccc1Cl)Oc1ccc2ccccc2c1", "inactive"),
    ("CCCCNCCC(O)c1cc2ccc(C(F)(F)F)cc2c2cc(C(F)(F)F)ccc12 (stereo not given)", "active"),
    ("Cc1cc(NC(=O)C2c3ccccc3C(=O)N(CC(C)C)C2c2cccs2)no1 (stereo not given)", "active"),
    ("O=C(Nc1ccc(Oc2ccc(Nc3nc4ccccc4s3)cc2)cc1)Nc1ccc(Cl)c(C(F)(F)F)c1", "active"),
    ("CC1(C)C(N(O)C(=O)Nc2ccc(Cl)cc2)N(c2ccc(Cl)cc2)C(=O)N1CC(=O)N/N=C/C=C/c1ccc([N+](=O)[O-])o1 (stereo not given)", "active"),
    ("COc1ccc(/C(=C\\c2cc(OC)c(OC)c(OC)c2)C(=O)N2CCCNCC2)cc1", "inactive"),
    ("O=C1c2ccccc2C2N1CCC1CCc3ccccc3N12 (stereo not given)", "inactive"),
    ("O=c1[nH]c2ccccc2n2cc3cccnc3c12", "inactive"),
]

* * *

test system: OVCAR-5 ovarian; assay: NCI-60 one-dose screen, 48 h; conditions: 10 µM unless noted
The panel holds about 83,000 compounds, 20% with a hit somewhere; the sample as a whole holds those more often. Activity calls are given as the source filed them. The calls were made as follows: active = growth percent below 10; inactive = the rest.
Classes used: active, inactive

# compound, system-name, label
measured = [
    ("O=C(Nc1ccc(Br)cc1)Nc1ccccc1Cl", "OVCAR-5 ovarian", "inactive"),
    ("COc1ccc(C(=O)c2cc(C)c(OC)c(C)c2)cc1OC(=O)CCl", "OVCAR-5 ovarian", "inactive"),
    ("COc1cc(/C=C2\\C(=O)Nc3ccc(N(C)C)cc32)cc(OC)c1OC", "OVCAR-5 ovarian", "inactive"),
    ("CCC(=O)NC(O)C(Cl)(Cl)C(C)Cl (stereo not given)", "OVCAR-5 ovarian", "inactive"),
    ("C#CC[C@@H]1C[C@]2(C)[C@H]3CC[C@@H]4[C@H]5C(C(=C)C)CC[C@]5(C(=O)NCCCN5CCN(CCCN)CC5)CC[C@@]4(C)[C@]3(C)CC[C@H]2C(C)(C)[C@H]1OC(C)=O (stereo not given in full)", "OVCAR-5 ovarian", "active"),
    ("CNC(=O)c1ccccc1Sc1ccc2c(/C=C/c3ccccn3)n[nH]c2c1", "OVCAR-5 ovarian", "inactive"),
    ("COc1c(B(O)O)cccc1-c1nc2c(F)cc3n[nH]c(C)c3c2c2c1CCCC2", "OVCAR-5 ovarian", "active"),
    ("O=C1C2=C(C(=O)c3c(O)ccc(O)c31)N(c1ccc(N3CCOCC3)nc1)Cc1ccccc1O2", "OVCAR-5 ovarian", "active"),
    ("NC(=O)Nc1ccc2ncnc(Nc3cccc(O)c3)c2c1", "OVCAR-5 ovarian", "inactive"),
    ("CCOC(=O)c1ccc(N(CCC(=O)O)C(C)=O)cc1", "OVCAR-5 ovarian", "inactive"),
    ("CCN(CC)CCCC(C)Nc1cnc(C(=O)Nc2cc(C)cc3cccnc23)cn1 (stereo not given)", "OVCAR-5 ovarian", "inactive"),
    ("CN(C)c1ccc(/C=N/Nc2nnc3n2N=C(c2ccc(Cl)cc2)CS3)cc1", "OVCAR-5 ovarian", "inactive"),
    ("CC(C)(C)CC(C)(C)NCc1cc(C(C)(C)C)cc(CNC(C)(C)CC(C)(C)C)c1O", "OVCAR-5 ovarian", "inactive"),
    ("CCc1ccc(-c2ccc(NC3CCCCCC3)nn2)cc1S(N)(=O)=O", "OVCAR-5 ovarian", "inactive"),
    ("COc1ccc(/C(=C\\c2cc(OC)c(OC)c(OC)c2)C(=O)N2CCNCC2)cc1", "OVCAR-5 ovarian", "inactive"),
    ("N=C(N)c1ccc(-c2ccc(-c3cc(Cl)cc(Cl)c3)o2)nc1", "OVCAR-5 ovarian", "active"),
    ("COc1ccc(/C(=C\\c2ccc3c(c2)OCO3)C(=O)Nc2nc3ccccc3s2)cc1", "OVCAR-5 ovarian", "inactive"),
    ("C#CC[C@@H]1C[C@]2(C)[C@H]3CC=C4[C@H]5[C@@H](C)[C@H](C)CC[C@]5(C(=O)NCCCN5CCN(CCCN)CC5)CC[C@@]4(C)[C@]3(C)CC[C@H]2C(C)(C)[C@H]1OC(C)=O", "OVCAR-5 ovarian", "inactive"),
    ("COc1ccc2nc(C)cc(Nc3ccccc3O)c2c1", "OVCAR-5 ovarian", "inactive"),
    ("C#CC[C@@H]1C[C@]2(C)[C@H]3CC[C@@H]4[C@H]5C(C(=C)C)CC[C@]5(C(=O)NCCCCN)CC[C@@]4(C)[C@]3(C)CC[C@H]2C(C)(C)[C@H]1OC(C)=O (stereo not given in full)", "OVCAR-5 ovarian", "active"),
    ("O=C1OCC2=C1C(c1cccc(Br)c1)c1cc3c(cc1N2CCO)OCCO3 (stereo not given)", "OVCAR-5 ovarian", "inactive"),
    ("CCNC(=S)N(Cc1ccccc1)Cc1ccccc1", "OVCAR-5 ovarian", "inactive"),
    ("COc1ccc2c(c1)CCCC21C(=O)Nc2ccccc21 (stereo not given)", "OVCAR-5 ovarian", "inactive"),
    ("c1ccc(C(Nc2ccccn2)(c2ccccc2)c2ccccc2)cc1", "OVCAR-5 ovarian", "inactive"),
    ("COc1cc(C2CC(c3cccc(Nc4ccnc5cc(Cl)ccc45)c3)=NN2c2ccccc2)cc(OC)c1OC (stereo not given)", "OVCAR-5 ovarian", "inactive"),
    ("Cc1ccc(NC(=O)c2[nH]c(SCCN(C)C)nc2-c2ccc(F)cc2)cc1C#Cc1cnc2cccnn12", "OVCAR-5 ovarian", "inactive"),
    ("CC(C)N=C1CCCC1C(=S)SSC(=S)C1CCCC1=NC(C)C (stereo not given)", "OVCAR-5 ovarian", "inactive"),
    ("O=[N+]([O-])c1cccc([I+]c2ccccc2)c1", "OVCAR-5 ovarian", "inactive"),
    ("Cc1cc(O)ccc1C1=NN(c2ccc(S(N)(=O)=O)cc2)C(=O)CC1", "OVCAR-5 ovarian", "inactive"),
    ("COc1cc(OC)cc(-c2n/c(=C\\c3c(O)[nH]c4ccc(Cl)cc34)cc3c2=Nc2ccccc2-3)c1", "OVCAR-5 ovarian", "inactive"),
    ("COC1=CC(c2ccc[nH]2)=N/C1=C\\c1[nH]c(C)c(C(=O)CCCCCCCCC(=O)O[C@H]2CC[C@H]3C4CCc5cc(O)ccc5C4CC[C@]23C)c1C (stereo not given in full)", "OVCAR-5 ovarian", "inactive"),
    ("CCCCCCCCCC1=NC(C)(C)CN1C(C)(C)CO", "OVCAR-5 ovarian", "inactive"),
    ("Nc1nonc1-c1nc2ccccc2n1Cc1ccc(F)cc1", "OVCAR-5 ovarian", "inactive"),
    ("C=CCOc1c(Br)cc(Br)cc1Br", "OVCAR-5 ovarian", "inactive"),
    ("Nc1c(C(=O)c2ccc(Br)cc2)sc2nc3c(cc12)CCCC3", "OVCAR-5 ovarian", "inactive"),
    ("Clc1ccc(Nc2ncnc3c2sc2ncccc23)cc1", "OVCAR-5 ovarian", "inactive"),
    ("O=C1c2ccccc2C2N1CCC1CCc3ccccc3N12 (stereo not given)", "OVCAR-5 ovarian", "inactive"),
    ("COC(=O)c1cc2oc(/C=N/NC(=O)c3cc4oc(-c5cccc(C(F)(F)F)c5)cc4[nH]3)cc2n1Cc1ccccc1", "OVCAR-5 ovarian", "inactive"),
    ("CCCOC(=O)C1c2cc3c(cc2CC(C)C1C(=O)OCCC)OCO3 (stereo not given)", "OVCAR-5 ovarian", "inactive"),
    ("NS(=O)(=O)c1ccc(N2N=C(c3ccc(Br)cc3)CC2c2cn(-c3ccccc3)nc2-c2ccc(Cl)cc2)cc1 (stereo not given)", "OVCAR-5 ovarian", "inactive"),
]
